Reported Ki values follow for various molecules
Biological target: GABA-A receptor; alpha-5/beta-3/gamma-2 (Homo sapiens, UniProt P18507+P28472+P31644)
Sequence (P18507 whole entry): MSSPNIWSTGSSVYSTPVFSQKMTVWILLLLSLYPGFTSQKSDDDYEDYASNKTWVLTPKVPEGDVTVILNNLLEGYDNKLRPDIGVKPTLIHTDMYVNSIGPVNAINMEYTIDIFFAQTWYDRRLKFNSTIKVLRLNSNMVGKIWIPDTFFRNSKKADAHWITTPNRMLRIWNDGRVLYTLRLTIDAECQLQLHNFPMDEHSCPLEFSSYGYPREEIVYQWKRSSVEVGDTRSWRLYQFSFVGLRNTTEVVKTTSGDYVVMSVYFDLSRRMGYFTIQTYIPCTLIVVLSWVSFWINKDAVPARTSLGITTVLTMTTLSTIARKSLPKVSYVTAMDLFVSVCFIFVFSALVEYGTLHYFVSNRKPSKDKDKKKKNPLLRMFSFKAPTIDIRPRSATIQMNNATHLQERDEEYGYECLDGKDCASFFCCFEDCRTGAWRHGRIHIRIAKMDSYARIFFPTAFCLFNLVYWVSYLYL
Sequence (P28472 whole entry): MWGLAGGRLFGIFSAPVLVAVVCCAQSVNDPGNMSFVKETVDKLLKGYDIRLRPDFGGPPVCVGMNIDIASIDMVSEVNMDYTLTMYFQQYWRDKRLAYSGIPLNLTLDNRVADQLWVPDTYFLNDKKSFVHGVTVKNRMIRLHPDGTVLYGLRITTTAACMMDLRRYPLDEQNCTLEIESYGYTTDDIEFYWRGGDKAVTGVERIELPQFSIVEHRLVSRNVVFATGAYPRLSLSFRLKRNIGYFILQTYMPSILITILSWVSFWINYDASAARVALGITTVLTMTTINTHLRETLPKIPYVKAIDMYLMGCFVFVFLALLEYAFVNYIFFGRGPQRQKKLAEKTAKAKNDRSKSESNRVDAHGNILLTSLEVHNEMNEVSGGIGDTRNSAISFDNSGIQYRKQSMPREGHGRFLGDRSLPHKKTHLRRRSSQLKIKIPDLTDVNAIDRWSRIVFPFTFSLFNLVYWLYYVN
Sequence (P31644 whole entry): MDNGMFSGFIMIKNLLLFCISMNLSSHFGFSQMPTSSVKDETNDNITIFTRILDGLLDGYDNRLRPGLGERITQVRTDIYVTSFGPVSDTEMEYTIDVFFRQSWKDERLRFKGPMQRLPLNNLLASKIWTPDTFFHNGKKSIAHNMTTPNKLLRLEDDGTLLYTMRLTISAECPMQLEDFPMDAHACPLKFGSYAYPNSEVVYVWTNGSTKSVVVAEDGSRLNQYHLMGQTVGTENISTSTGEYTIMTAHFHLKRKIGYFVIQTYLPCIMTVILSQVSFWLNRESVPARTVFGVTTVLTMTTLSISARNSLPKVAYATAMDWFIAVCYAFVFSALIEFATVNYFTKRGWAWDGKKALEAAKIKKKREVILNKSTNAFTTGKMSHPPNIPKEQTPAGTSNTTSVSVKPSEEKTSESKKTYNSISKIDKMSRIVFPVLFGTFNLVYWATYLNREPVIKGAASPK

INPUT_SMILES | ASSAYED_SYSTEM | UNIT_ABBREVIATION | Ki
CCOC(=O)c1ncn2c1Cn1cnnc1-c1cc(O)ccc1-2 | GABA-A receptor; alpha-5/beta-3/gamma-2 (Homo sapiens, UniProt P18507+P28472+P31644) | nM | 0.6
CCOC(=O)c1ncn2c1Cn1c(C)nnc1-c1cc(OC)ccc1-2 | GABA-A receptor; alpha-5/beta-3/gamma-2 (Homo sapiens, UniProt P18507+P28472+P31644) | nM | 14.5
CCOC(=O)c1ncn2c1Cn1c(Cc3ccccc3)nnc1-c1cc(Br)ccc1-2 | GABA-A receptor; alpha-5/beta-3/gamma-2 (Homo sapiens, UniProt P18507+P28472+P31644) | nM | 19.1
N#Cc1ccc2c(c1)-c1nncn1Cc1c(Cl)ncn1-2 | GABA-A receptor; alpha-5/beta-3/gamma-2 (Homo sapiens, UniProt P18507+P28472+P31644) | nM | 25.3
CCOC(=O)c1ncn2c1Cc1cnc(C)nc1-c1cc(F)ccc1-2 | GABA-A receptor; alpha-5/beta-3/gamma-2 (Homo sapiens, UniProt P18507+P28472+P31644) | nM | 4.6
CCOC(=O)c1cn2c(n1)-c1cc(Br)ccc1-n1cnc(C)c1C2 | GABA-A receptor; alpha-5/beta-3/gamma-2 (Homo sapiens, UniProt P18507+P28472+P31644) | nM | 5.4
CCCc1ncc2c(n1)-c1cc(F)ccc1-n1cnc(C(=O)OCC)c1C2 | GABA-A receptor; alpha-5/beta-3/gamma-2 (Homo sapiens, UniProt P18507+P28472+P31644) | nM | 8
Cc1ncn2c1Cn1ccnc1-c1cc(Br)ccc1-2 | GABA-A receptor; alpha-5/beta-3/gamma-2 (Homo sapiens, UniProt P18507+P28472+P31644) | nM | 6.6
CCOC(=O)c1ncn2c1Cn1ncnc1-c1cc(Cl)ccc1-2 | GABA-A receptor; alpha-5/beta-3/gamma-2 (Homo sapiens, UniProt P18507+P28472+P31644) | nM | 0.2
CCOC(=O)c1ncn2c1Cn1cnnc1-c1ccccc1-2 | GABA-A receptor; alpha-5/beta-3/gamma-2 (Homo sapiens, UniProt P18507+P28472+P31644) | nM | 0.8
C#Cc1ccc2c(c1)-c1nc(C)ncc1Cc1c(Cl)ncn1-2 | GABA-A receptor; alpha-5/beta-3/gamma-2 (Homo sapiens, UniProt P18507+P28472+P31644) | nM | 133
Cc1ncn2c1Cn1c(C)cnc1-c1cc(Br)ccc1-2 | GABA-A receptor; alpha-5/beta-3/gamma-2 (Homo sapiens, UniProt P18507+P28472+P31644) | nM | 11.7
Clc1ncn2c1Cc1cncnc1-c1ccccc1-2 | GABA-A receptor; alpha-5/beta-3/gamma-2 (Homo sapiens, UniProt P18507+P28472+P31644) | nM | 15.6

Value source: ChEMBL document CHEMBL1156033
